Hey, just so you know, these numbers are from ChEMBL document CHEMBL5108062.

# subjectOfTest: Dipeptidyl peptidase 4 (Homo sapiens, UniProt P27487)
# Sequence (P27487 whole entry): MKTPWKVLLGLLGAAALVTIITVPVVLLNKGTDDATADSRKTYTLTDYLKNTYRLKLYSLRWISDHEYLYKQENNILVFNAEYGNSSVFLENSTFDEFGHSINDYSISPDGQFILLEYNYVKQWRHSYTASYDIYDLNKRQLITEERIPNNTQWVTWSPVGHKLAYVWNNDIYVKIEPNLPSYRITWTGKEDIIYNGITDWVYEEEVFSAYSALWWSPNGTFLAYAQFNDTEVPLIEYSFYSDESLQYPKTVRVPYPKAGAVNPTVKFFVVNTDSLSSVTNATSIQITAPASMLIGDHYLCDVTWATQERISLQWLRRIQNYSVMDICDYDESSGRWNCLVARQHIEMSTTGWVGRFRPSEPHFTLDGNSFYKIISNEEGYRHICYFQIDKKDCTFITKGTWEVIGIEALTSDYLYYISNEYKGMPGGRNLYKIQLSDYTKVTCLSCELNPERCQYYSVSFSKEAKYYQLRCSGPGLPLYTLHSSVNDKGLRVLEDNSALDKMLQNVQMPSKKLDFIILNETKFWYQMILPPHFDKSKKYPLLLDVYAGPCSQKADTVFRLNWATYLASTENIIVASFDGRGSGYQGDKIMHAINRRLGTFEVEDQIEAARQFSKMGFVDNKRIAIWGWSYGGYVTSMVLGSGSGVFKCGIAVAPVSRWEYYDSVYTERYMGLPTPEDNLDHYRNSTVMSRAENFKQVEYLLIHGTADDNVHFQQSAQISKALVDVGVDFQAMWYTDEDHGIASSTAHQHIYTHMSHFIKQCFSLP
# protocolDescription: Inhibition of human recombinant DPP4 using H-Gly-Pro-AMC as substrate incubated for 30 mins by fluorescence based microplate reader assay
readoutKind: IC50 (µM)
Numbers only, in µM.

query: Consider the molecule COc1cc(S(N)(=O)=O)ccc1OCCC(N=[N+]=[N-])C1COc2ccccc2O1 (stereo unspecified) . State its measured IC50.
result: 327
